Test: Change in appearance of the salts at room temperature for 24 hours
Assay type: physicochemical
Details: dried material, initial
quantity: Initial appearance

O=C(O)c1ccc2ccccc2c1O [Naphthoic acid, 1-hydroxy-2]	Powder
CCCCCCCCCCCCCCCCCC(=O)O	Powder
O=C(O)CC(=O)O	Foam
CN(C)CCCNC(=O)/C(=C/CCCCC(=O)NO)COc1cccc2ccccc12	Foam
CN(C)CCCNC(=O)/C(=C/CCCCC(=O)NO)COc1cccc2ccccc12.Cc1ccc(S(=O)(=O)O)cc1	Foam
O=C(O)CC(O)(CC(=O)O)C(=O)O	Foam
CC(=O)O	Foam
CN(C)CCCNC(=O)/C(=C/CCCCC(=O)NO)COc1cccc2ccccc12.O=C(O)C(O)C(O)C(=O)O	Powder
O=C(O)CCC(=O)O	Powder
O=C(O)/C=C/C(=O)O	Powder

Pending compound:
Prompt line: Field request: Initial appearance | item: O=S(=O)(O)c1ccccc1
Response line: Foam

Where do these numbers come from? They come from patent US11655207B2.
